- protocol.text: Blood and brain penetration assay after single oral administration
- Type: in vivo, mouse
- applied.conditions: male, C57Bl/6, mouse, brain, po, 50 mg/kg, mouse, single oral 50 mg/kg, perfused brain; read-out: t1/2 in brain (converted)
parameter: half-life
Include the unit after the number when you answer.

Form field half-life, entry "CC[C@H]1CN2CC[C@]3(C(=O)Nc4ccccc43)[C@@H]2C[C@@H]1/C(=C\OC)C(=O)OC" : 1.79 h

###

- protocol.text: Blood and brain penetration assay after single oral administration
- Assay type: in vivo, mouse
- applied.conditions: male, C57Bl/6, mouse, plasma, po, 50 mg/kg, mouse, single oral 50 mg/kg; read-out: t1/2 in plasma
parameter: half-life (h)
Give the quantity in h, number only.

Input "CC[C@H]1CN2CC[C@]3(C(=O)Nc4ccccc43)[C@@H]2C[C@@H]1/C(=C\OC)C(=O)OC" . Output half-life: 1.35
